- targetSystem: T1, human TROP2-his protein (human, UniProt P09758 27-274)
- T1 construct: Biotin-labelled in the ELISAs, unlabelled analyte in Biacore; also called biotin-labeled human TROP2-his protein; biotin human Trop2-his
- T1 sequence: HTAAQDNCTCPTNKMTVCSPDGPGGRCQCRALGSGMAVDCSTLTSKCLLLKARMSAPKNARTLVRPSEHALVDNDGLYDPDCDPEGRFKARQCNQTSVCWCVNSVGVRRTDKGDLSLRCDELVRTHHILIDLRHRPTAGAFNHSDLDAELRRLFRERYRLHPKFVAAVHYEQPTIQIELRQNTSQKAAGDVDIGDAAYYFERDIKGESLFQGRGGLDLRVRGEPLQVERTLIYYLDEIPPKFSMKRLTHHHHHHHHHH
- testProtocol: SPR Biacore T200, supernatant antibody captured on anti-human IgG CM5 chip, 40 nM human TROP2-his
endpointName: koff (s⁻¹)
Give just the number in s⁻¹; leave the unit off.

// query Give koff for huA1E4F7D4-V17 (antibody, human IgG1, kappa, V domains shown, Positions of the X residues are given in the claims; Tested as cell supernatant) VH: QVQLVQSGAEVKKPGASVKVSCKASGYSFTTHWIHWVRQAPGQGLEWIGTIFPSNAYAVYNQKFRDRATMTADRSISTAYIELSRLRSDDTAVYYCARASYFDYWGQGTTVTVSS VL: EIVLTQSPATLSLSPGERATLSCRASQNIGTSIHWFQQKPGGSPRLLIYYASESISGIPSRFSGSGSGTDFTLTISSLEPEDFAVYYCQHSHSWPFTFGQGTKLEIKR
// result 0.000279
